Listing of entries alongside the reported Papp.
assayName: Apparent permeability of the compound in PAMPA assay
testSettings: artificial membrane
Write the answer as a number in ×10⁻⁶ cm/s, unit excluded.

{"columns": ["smilesNotation", "measureName", "reportedValue"],
 "data": [
  ["CNc1nc2nc(-c3ccc(C(=O)O)cc3)n(CCOc3ccc(Cl)cc3)c2c(=O)[nH]1", "Papp", 1.15],
  ["CNc1nc2nc(-c3ccc(C(F)(F)P(=O)(O)O)cc3)n(CCOc3ccc(Cl)cc3)c2c(=O)[nH]1", "Papp", 0.7],
  ["CNc1nc2nc(-c3ccc(CP(=O)(O)O)cc3)n(CCOc3ccc(Cl)cc3)c2c(=O)[nH]1", "Papp", 0.6],
  ["CCOP(=O)(OCC)c1ccc(-c2nc3nc(NC)[nH]c(=O)c3n2CCOc2ccc(Cl)cc2)cc1", "Papp", 12.1],
  ["CCOP(=O)(O)c1ccc(-c2nc3nc(NC)[nH]c(=O)c3n2CCOc2ccc(Cl)cc2)cc1", "Papp", 1]
]}

What does the record list as Papp for CNc1nc2nc(-c3ccc(P(=O)(O)O)cc3)n(CCOc3ccc(Cl)cc3)c2c(=O)[nH]1 ? 1.1

Entry source: ChEMBL document CHEMBL2046428
